Task for the reader: assign each of the following compounds its reported inhibition at 10 µM.
Target: rat-species vanilloid receptor 1 (VR1/TRPV1) (Rattus norvegicus)
Construct: endogenous in cells; host or cells: primary cultured rat dorsal root ganglion cells
Assay: Functional testing on vanilloid receptor 1 (VR1/TRPV1), FLIPR Ca2+ inflow assay in rat dorsal root ganglia cells
Assay type: cell-based
Conditions: test compound 10 μM, 5 min incubation, then 100 nM capsaicin; relative to maximum achievable inhibition with 10 μM capsaicin; read-out: VR1 (rat) (% inhibition compared to 10 μM CP)
One number for each entry, in %.

Compound: O=C(Nc1ccc(C(F)(F)F)cc1)N1CCC2(CC1)CC(C(=O)N1CCN(c3ncccc3Cl)CC1)=NO2 [Example 71]
Experimental Target: rat-species vanilloid receptor 1 (VR1/TRPV1) (Rattus norvegicus)
Value Type: inhibition at 10 µM
Value Observed: 57.2
--
Compound: O=C(Nc1cccc(Br)c1)N1CCC2(CC1)CC(C(=O)N1CCN(c3ncccc3Cl)CC1)=NO2 [Example 11]
Experimental Target: rat-species vanilloid receptor 1 (VR1/TRPV1) (Rattus norvegicus)
Value Type: inhibition at 10 µM
Value Observed: 41.3
--
Compound: CC(C)(C)c1ccc(NC(=O)N2CCC3(CC2)CC(C(=O)N2CCN(c4ncccc4C(F)(F)F)CC2)=NO3)cc1 [Example 228]
Experimental Target: rat-species vanilloid receptor 1 (VR1/TRPV1) (Rattus norvegicus)
Value Type: inhibition at 10 µM
Value Observed: 100
--
Compound: CSc1ccc(NC(=O)N2CCC3(CC2)CC(C(=O)N2CCN(c4ncccc4Cl)CC2)=NO3)cc1 [Example 58]
Experimental Target: rat-species vanilloid receptor 1 (VR1/TRPV1) (Rattus norvegicus)
Value Type: inhibition at 10 µM
Value Observed: 72.5

// batch mode: one inhibition at 10 µM value per listed entry
1. O=C(Nc1cccc(C(F)(F)F)c1)N1CCC2(CC1)CC(C(=O)N1CCN(c3ncccc3Cl)CC1)=NO2 [Example 68]
2. O=C(Nc1cc(C(F)(F)F)ccc1Cl)N1CCC2(CC1)CC(C(=O)N1CCN(c3ncccc3Cl)CC1)=NO2 [Example 22]
3. CC(C)c1ccc(NC(=O)N2CCC3(CC2)CC(C(=O)N2CCN(c4ncccc4Cl)CC2)=NO3)cc1 [Example 63]

[58.1, 43.3, 78.9]

---

Molecular target: VR1 (human) (Homo sapiens)
Construct: expressed in transfected cells; host or cells: CHO K1 cells (ECACC)
Experiment: Functional testing on vanilloid receptor VR1, FLIPR Ca2+ inflow assay (CHO K1 cells stably transfected with the VR1 gene)
Assay type: cell-based
Conditions: test compound 10 μM; Ca2+ inflow relative to signal of 10 μM capsaicin (CP)
Exercise: for every item that follows, state its recorded VR1 (human) (% stimulation compared to 10 μM CP).
Numbers only, in %.

Example cases with answers are listed next.
Smiles Structure: COc1ccc(CNC(=O)C2=NOC3(CCN(C(=O)Nc4ccc(C(F)(F)F)cc4)CC3)C2)cc1OC
Reading Unit: %
Value Observed: −0.18
//
Smiles Structure: COc1cccc(NC(=O)N2CCC3(CC2)CC(C(=O)NCc2ccc(OC)c(OC)c2)=NO3)c1
Reading Unit: %
Value Observed: 0.40

Provide each entry's VR1 (human) (% stimulation compared to 10 μM CP) from the list below.
1. COc1cccc(NC(=O)N2CCC3(CC2)CC(C(=O)Nc2ccc(Cl)cn2)=NO3)c1
2. O=C(Nc1ccc(Cl)cn1)C1=NOC2(CCN(C(=O)Nc3ccccc3Cl)CC2)C1

1. 0.67
2. −0.48

---

Target: rat-species vanilloid receptor 1 (VR1/TRPV1) (Rattus norvegicus, UniProt O35433)
Construct: endogenous in cells; host or cells: primary cultured rat dorsal root ganglion cells
Sequence (O35433 whole entry): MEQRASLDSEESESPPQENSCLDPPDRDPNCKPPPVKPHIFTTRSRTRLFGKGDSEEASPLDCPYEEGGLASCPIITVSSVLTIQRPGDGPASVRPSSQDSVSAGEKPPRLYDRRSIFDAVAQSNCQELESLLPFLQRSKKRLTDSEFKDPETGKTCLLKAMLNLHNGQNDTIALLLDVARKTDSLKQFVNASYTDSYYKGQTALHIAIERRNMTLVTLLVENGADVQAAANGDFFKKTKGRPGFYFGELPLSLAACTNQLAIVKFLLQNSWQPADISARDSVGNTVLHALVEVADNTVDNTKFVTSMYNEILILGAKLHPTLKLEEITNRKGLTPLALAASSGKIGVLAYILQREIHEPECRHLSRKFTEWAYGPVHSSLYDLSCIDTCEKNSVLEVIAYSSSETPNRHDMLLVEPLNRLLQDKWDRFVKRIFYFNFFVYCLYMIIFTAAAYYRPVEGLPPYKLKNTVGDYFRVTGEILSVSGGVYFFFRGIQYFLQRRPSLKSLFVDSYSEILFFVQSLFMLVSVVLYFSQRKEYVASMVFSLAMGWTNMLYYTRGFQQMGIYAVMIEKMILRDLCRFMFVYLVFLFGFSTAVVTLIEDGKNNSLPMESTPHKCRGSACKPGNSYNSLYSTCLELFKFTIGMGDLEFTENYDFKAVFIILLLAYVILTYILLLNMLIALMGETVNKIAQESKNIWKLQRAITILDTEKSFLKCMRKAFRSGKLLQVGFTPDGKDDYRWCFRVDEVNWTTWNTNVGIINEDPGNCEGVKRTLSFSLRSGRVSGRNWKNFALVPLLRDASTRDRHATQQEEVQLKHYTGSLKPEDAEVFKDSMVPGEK
Experiment: Functional testing on vanilloid receptor 1 (VR1/TRPV1), FLIPR Ca2+ inflow assay in rat dorsal root ganglia cells
Type: cell-based
Settings: test compound 10 μM; Ca2+ inflow relative to signal of 10 μM capsaicin (CP); read-out: VR1 (rat) (% stimulation compared to 10 μM CP)
Value Type: activation at 10 µM (%)
Answers are plain numbers, in %.

See these solved cases before continuing.
Smiles Structure: O=C(Nc1ccc(OC(F)(F)F)cc1)N1CCC2(CC1)CC(C(=O)N1CCN(c3ncccc3Cl)CC1)=NO2
activation at 10 µM / %: 6.21
//
Smiles Structure: CSc1cccc(NC(=O)N2CCC3(CC2)CC(C(=O)N2CCN(c4ncccc4Cl)CC2)=NO3)c1
activation at 10 µM / %: 30.2

Would you kindly look at the next entry?
Respond only with activation at 10 µM recorded for `O=C(Nc1cc(C(F)(F)F)ccc1Cl)N1CCC2(CC1)CC(C(=O)N1CCN(c3ncccc3Cl)CC1)=NO2`
2.79

---

Target: rat-species vanilloid receptor 1 (VR1/TRPV1) (Rattus norvegicus, UniProt O35433)
Construct: endogenous in cells; host or cells: primary cultured rat dorsal root ganglion cells
Assay: Functional testing on vanilloid receptor 1 (VR1/TRPV1), FLIPR Ca2+ inflow assay in rat dorsal root ganglia cells
Assay type: cell-based
Conditions: test compound 10 μM, 5 min incubation, then 100 nM capsaicin; relative to maximum achievable inhibition with 10 μM capsaicin
Value Type: VR1 (rat) (% inhibition compared to 10 μM CP) (%)
Answers are plain numbers, in %.

Smiles Structure: COc1cccc(NC(=O)N2CCC3(CC2)CC(C(=O)Nc2ccc(Cl)cn2)=NO3)c1
Value Observed: 34.24

Go through the list and state VR1 (rat) (% inhibition compared to 10 μM CP) for each entry.
1. COc1ccc(CNC(=O)C2=NOC3(CCN(C(=O)Nc4ccc(C(F)(F)F)cc4)CC3)C2)cc1OC
2. COc1cccc(NC(=O)N2CCC3(CC2)CC(C(=O)NCc2ccc(OC)c(OC)c2)=NO3)c1
3. O=C(Nc1ccc(Cl)cn1)C1=NOC2(CCN(C(=O)Nc3ccccc3Cl)CC2)C1

67.41
8.65
45.63

---

Target: VR1 (human) (Homo sapiens, UniProt Q8NER1)
Construct: expressed in transfected cells; host or cells: CHO K1 cells (ECACC)
Sequence (Q8NER1 whole entry): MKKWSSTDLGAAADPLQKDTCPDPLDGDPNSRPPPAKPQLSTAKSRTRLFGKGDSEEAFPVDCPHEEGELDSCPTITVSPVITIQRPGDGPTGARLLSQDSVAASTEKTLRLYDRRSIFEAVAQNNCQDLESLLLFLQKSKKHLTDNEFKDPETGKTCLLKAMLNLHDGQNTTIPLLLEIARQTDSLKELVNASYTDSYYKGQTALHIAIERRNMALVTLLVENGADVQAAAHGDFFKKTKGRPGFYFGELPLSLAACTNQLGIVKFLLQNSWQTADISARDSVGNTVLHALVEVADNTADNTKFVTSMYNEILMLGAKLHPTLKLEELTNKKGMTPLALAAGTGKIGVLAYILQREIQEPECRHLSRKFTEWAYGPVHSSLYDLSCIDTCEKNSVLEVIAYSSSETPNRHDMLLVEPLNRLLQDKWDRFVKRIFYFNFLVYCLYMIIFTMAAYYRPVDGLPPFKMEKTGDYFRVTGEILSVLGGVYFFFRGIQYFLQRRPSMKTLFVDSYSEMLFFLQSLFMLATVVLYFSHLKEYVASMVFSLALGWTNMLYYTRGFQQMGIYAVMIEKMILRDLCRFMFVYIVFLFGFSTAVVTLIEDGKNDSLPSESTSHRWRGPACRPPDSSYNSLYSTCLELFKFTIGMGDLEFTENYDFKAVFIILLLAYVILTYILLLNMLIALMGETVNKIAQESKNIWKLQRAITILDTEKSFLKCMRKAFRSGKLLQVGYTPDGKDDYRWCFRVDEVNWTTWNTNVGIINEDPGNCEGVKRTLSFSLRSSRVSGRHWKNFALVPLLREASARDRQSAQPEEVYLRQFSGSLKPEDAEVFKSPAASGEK
Test: Functional testing on vanilloid receptor VR1, FLIPR Ca2+ inflow assay (CHO K1 cells stably transfected with the VR1 gene)
Assay type: cell-based
Details: CHO-K1; test compound 10 μM; Ca2+ inflow relative to signal of 10 μM capsaicin (CP); read-out: VR1 (human) (% stimulation compared to 10 μM CP)
Value Type: activation at 10 µM (%)
Numbers only, in %.

Answered examples (5):
Smiles Structure: O=C(Nc1ccc(S(F)(F)(F)(F)F)cc1)N1CCC2(CC1)CC(C(=O)N1CCN(c3ncccc3Cl)CC1)=NO2
Experimental Target: VR1 (human) (Homo sapiens, UniProt Q8NER1)
activation at 10 µM (%): 10

Smiles Structure: CSc1ccc(NC(=O)N2CCC3(CC2)CC(C(=O)N2CCN(c4ncccc4Cl)CC2)=NO3)cc1
Experimental Target: VR1 (human) (Homo sapiens, UniProt Q8NER1)
activation at 10 µM (%): 72.9

Smiles Structure: O=C(Nc1cc(C(F)(F)F)ccc1Cl)N1CCC2(CC1)CC(C(=O)N1CCN(c3ncccc3Cl)CC1)=NO2
Experimental Target: VR1 (human) (Homo sapiens, UniProt Q8NER1)
activation at 10 µM (%): -0.66

Smiles Structure: O=C(Nc1ccc(Cl)c(C(F)(F)F)c1)N1CCC2(CC1)CC(C(=O)N1CCN(c3ncccc3Cl)CC1)=NO2
Experimental Target: VR1 (human) (Homo sapiens, UniProt Q8NER1)
activation at 10 µM (%): 0.08

Smiles Structure: O=C(Nc1ccc(OC(F)(F)F)cc1)N1CCC2(CC1)CC(C(=O)N1CCN(c3ncccc3Cl)CC1)=NO2
Experimental Target: VR1 (human) (Homo sapiens, UniProt Q8NER1)
activation at 10 µM (%): -0.13

Go through the items and report each one's activation at 10 µM.
1. CC(C)c1ccc(NC(=O)N2CCC3(CC2)CC(C(=O)N2CCN(c4ncccc4Cl)CC2)=NO3)cc1
2. CSc1cccc(NC(=O)N2CCC3(CC2)CC(C(=O)N2CCN(c4ncccc4Cl)CC2)=NO3)c1
3. O=C(Nc1ccc(C(F)(F)F)cc1)N1CCC2(CC1)CC(C(=O)N1CCN(c3ncccc3Cl)CC1)=NO2

[2.59, 5.26, 34.7]

---

Target: VR1 (human) (Homo sapiens, UniProt Q8NER1)
Construct: expressed in transfected cells; host or cells: CHO K1 cells (ECACC)
Assay: Functional testing on vanilloid receptor VR1, FLIPR Ca2+ inflow assay (CHO K1 cells stably transfected with the VR1 gene)
Type: cell-based
Settings: CHO-K1; test compound 10 μM, 5 min incubation, then 100 nM capsaicin; relative to maximum achievable inhibition with 10 μM capsaicin; read-out: VR1 (human) (% inhibition compared to 10 μM CP)
Think of 40% as a floor: if inhibition at 10 µM stands on it or above, it is met; beneath it, not met.

Take a look at these entries with their results.
Smiles Structure: O=C(Nc1cc(C(F)(F)F)ccc1Cl)N1CCC2(CC1)CC(C(=O)N1CCN(c3ncccc3Cl)CC1)=NO2
Category: not met
--
Smiles Structure: O=C(Nc1ccc(S(F)(F)(F)(F)F)cc1)N1CCC2(CC1)CC(C(=O)N1CCN(c3ncccc3Cl)CC1)=NO2
Category: not met
--
Smiles Structure: COc1ccc(NC(=O)N2CCC3(CC2)CC(C(=O)N2CCN(c4ncccc4Cl)CC2)=NO3)cc1
Category: met
--
Smiles Structure: O=C(Nc1ccc(Cl)c(C(F)(F)F)c1)N1CCC2(CC1)CC(C(=O)N1CCN(c3ncccc3Cl)CC1)=NO2
Category: not met
--
Smiles Structure: CC(C)c1ccc(NC(=O)N2CCC3(CC2)CC(C(=O)N2CCN(c4ncccc4Cl)CC2)=NO3)cc1
Category: not met

Identify whether the reported inhibition at 10 µM of the following molecule is 40% or greater: `O=C(Nc1cccc(C(F)(F)F)c1)N1CCC2(CC1)CC(C(=O)N1CCN(c3ncccc3Cl)CC1)=NO2`
not met

Tell me whether inhibition at 10 µM is at least 40% here: `CC(C)c1ccccc1NC(=O)N1CCC2(CC1)CC(C(=O)N1CCN(c3ncccc3Cl)CC1)=NO2`
not met

Does the reported inhibition at 10 µM for `CSc1cccc(NC(=O)N2CCC3(CC2)CC(C(=O)N2CCN(c4ncccc4Cl)CC2)=NO3)c1` fall at or above the 40% mark?
met

hey, is inhibition at 10 µM for this one >= 40%? `O=C(Nc1ccc(OC(F)(F)F)cc1)N1CCC2(CC1)CC(C(=O)N1CCN(c3ncccc3Cl)CC1)=NO2`
met

Decide: is the reported value of inhibition at 10 µM for `O=C(Nc1ccc(C(F)(F)F)cc1)N1CCC2(CC1)CC(C(=O)N1CCN(c3ncccc3Cl)CC1)=NO2` equal to or greater than 40%?
met

Origin of measurements: patent US20080214807A1
